- METHOD NOTES: In vivo distribution of cerebrospinal fluid and plasma
- MEASUREMENT SETUP: 0.25h, intravenous 5 mg/kg, n=1
OBSERVABLE: Cerebrospinal fluid (ng/g)
Write down the numeric answer in ng/g and omit the unit.

Sample records with Cerebrospinal fluid:
COMPOUND	OBSERVABLE	OBS VALUE
CCN1C[C@H](F)C[C@@H](Nc2nnc(-c3ccc4sccc4c3O)n(C)c2=O)C1 [Compound 41]	Cerebrospinal fluid	67
CCn1c(-c2ccc3sccc3c2O)nnc(N[C@@H]2CCCN(C)C2)c1=O [Compound 17]	Cerebrospinal fluid	47
CCN1CCC[C@@H](Nc2nnc(-c3ccc4sccc4c3O)n(C)c2=O)C1 [Compound 3]	Cerebrospinal fluid	79

Qu. Need Cerebrospinal fluid of CCn1c(-c2ccc3sccc3c2O)nnc(N[C@@H]2C[C@@H](F)CN(C)C2)c1=O [Compound 43] , thanks.
Ans. 151

====

- METHOD NOTES: In vivo brain-to-plasma ratio in mice
- MEASUREMENT SETUP: 1 h, male mice, oral 10 mg/kg
// Plasma lookup, one value per entry
Write down the numeric answer in ng/mL and omit the unit.

Sample records with Plasma:
COMPOUND	Plasma (ng/mL)
CCN1CCC[C@@H](Nc2nnc(-c3ccc4sccc4c3O)n(C)c2=O)C1	2082
Cn1c(-c2ccc3sccc3c2O)nnc(N[C@@H]2CCCN(CCO)C2)c1=O	1830
CCn1c(-c2ccc3sccc3c2O)nnc(N[C@@H]2CCCN(C)C2)c1=O	5243

Qu. Need Plasma of Cc1nc(N[C@@H]2CCCC[C@H]2O)nnc1-c1ccc(C(F)(F)F)cc1O [Ref-2, reference compound] , thanks.
Ans. 264

====

- TARGET DESC: NLRP3 inflammasome (Homo sapiens)
- Construct: host or cells: THP-1 cells
- METHOD NOTES: Inhibitory activity of NLRP3 inflammasome in human monocytes (THP-1 cells, LPS + Nigericin, IL-1β ELISA)
- Type: cell-based
- MEASUREMENT SETUP: THP-1 cells, PMA, LPS 1 µg/mL 3 h, drug 40 min, Nigericin 10 µM 40 min, IL-1β ELISA; read-out: IC50
OBSERVABLE: IC50 (nM)
Write down the numeric answer in nM and omit the unit.

Sample records with IC50:
[2H]C([2H])([2H])N1CCC[C@@H](Nc2nnc(-c3ccc4sccc4c3O)n(C)c2=O)C1 3.9
C#Cc1ccc(-c2nnc(N[C@@H]3CCCN(CCO)C3)c(=O)n2C)c(O)c1 25.1
C#Cc1ccc(-c2nnc(N[C@@H]3CCCN(C)C3)c(=O)n2C)c(O)c1 12

In the following, a different compound is considered.
Qu. So what IC50 did Cn1c(-c2ccc3sccc3c2O)nnc(N[C@@H]2CCCN(C3CC(F)(F)C3)C2)c1=O get with NLRP3 inflammasome (Homo sapiens)?
Ans. 3.56

====

- METHOD NOTES: Pharmacokinetic evaluation in Balb/c mice
- Assay type: in vivo
- MEASUREMENT SETUP: male, Balb/c, mouse, in vivo, po, 5 mg/kg
// Cmax lookup, one value per entry
Write down the numeric answer in ng/mL and omit the unit.

CN1CCC[C@@H](Nc2nnc(-c3ccc4sccc4c3O)n(C)c2=O)C1 4610
CN1C[C@H](F)C[C@@H](Nc2nnc(-c3ccc4sccc4c3O)n(C)c2=O)C1 15000
CCN1CCC[C@@H](Nc2nnc(-c3ccc4sccc4c3O)n(CC)c2=O)C1 2740

Qu. Need Cmax of Cn1c(-c2ccc3sccc3c2O)nnc(N[C@@H]2CCCC[C@H]2O)c1=O , thanks.
Ans. 9810

Qu. Need Cmax of CCN1C[C@H](F)C[C@@H](Nc2nnc(-c3ccc4sccc4c3O)n(CC)c2=O)C1 , thanks.
Ans. 2700

====

- METHOD NOTES: Pharmacokinetic evaluation in Balb/c mice
- Type: in vivo
- MEASUREMENT SETUP: mouse, in vivo; 5 mg/kg, PO, Balb/c mice; read-out: Cmax
OBSERVABLE: Cmax (ng/mL)
Write down the numeric answer in ng/mL and omit the unit.

Sample records with Cmax:
CCN1CCC[C@@H](Nc2nnc(-c3ccc4sccc4c3O)n(C)c2=O)C1 1010
[2H]C([2H])([2H])C([2H])([2H])N1CCC[C@@H](Nc2nnc(-c3ccc4sccc4c3O)n(C)c2=O)C1 1340

In the following, a different compound is considered.
Qu. Need Cmax of CCN1C[C@H](F)C[C@@H](Nc2nnc(-c3ccc(C4CC4)cc3O)n(C)c2=O)C1 , thanks.
Ans. 1420

====

- TARGET DESC: human NLRP3 protein (Homo sapiens, UniProt Q96P20)
- Sequence (Q96P20 whole entry): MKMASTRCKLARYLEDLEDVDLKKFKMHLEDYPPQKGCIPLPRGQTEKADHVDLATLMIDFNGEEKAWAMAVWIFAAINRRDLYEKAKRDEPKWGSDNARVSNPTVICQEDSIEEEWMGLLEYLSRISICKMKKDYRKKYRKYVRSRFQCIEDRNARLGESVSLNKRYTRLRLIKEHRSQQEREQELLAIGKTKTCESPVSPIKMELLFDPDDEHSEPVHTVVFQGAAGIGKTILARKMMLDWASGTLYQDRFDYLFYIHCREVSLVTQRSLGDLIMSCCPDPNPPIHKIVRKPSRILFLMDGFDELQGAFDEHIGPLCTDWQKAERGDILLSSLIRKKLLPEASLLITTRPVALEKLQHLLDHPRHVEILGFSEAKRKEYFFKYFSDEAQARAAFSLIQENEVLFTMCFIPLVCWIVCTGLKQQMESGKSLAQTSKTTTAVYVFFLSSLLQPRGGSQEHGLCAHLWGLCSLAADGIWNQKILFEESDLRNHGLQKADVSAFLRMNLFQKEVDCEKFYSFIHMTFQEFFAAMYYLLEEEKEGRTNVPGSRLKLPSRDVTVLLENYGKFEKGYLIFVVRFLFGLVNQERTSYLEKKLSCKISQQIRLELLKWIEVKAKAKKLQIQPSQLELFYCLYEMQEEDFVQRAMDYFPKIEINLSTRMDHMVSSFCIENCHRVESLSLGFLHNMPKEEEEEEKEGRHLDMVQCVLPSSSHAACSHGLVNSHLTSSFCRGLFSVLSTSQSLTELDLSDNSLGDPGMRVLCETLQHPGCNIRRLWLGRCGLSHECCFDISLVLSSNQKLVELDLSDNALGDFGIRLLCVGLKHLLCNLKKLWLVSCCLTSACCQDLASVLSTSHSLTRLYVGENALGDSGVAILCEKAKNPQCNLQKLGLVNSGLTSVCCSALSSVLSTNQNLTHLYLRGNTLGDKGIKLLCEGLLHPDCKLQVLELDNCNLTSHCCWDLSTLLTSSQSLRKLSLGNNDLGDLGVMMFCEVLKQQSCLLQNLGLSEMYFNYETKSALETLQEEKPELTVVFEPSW
- METHOD NOTES: Affinity for human NLRP3 protein (Biacore T200, CM5 chip)
- Format: binding
- MEASUREMENT SETUP: protein immobilized on CM5 chip, 25°C
OBSERVABLE: Kd (nM)
Write down the numeric answer in nM and omit the unit.

Qu. Need Kd of CN1C[C@H](F)C[C@@H](Nc2nnc(-c3ccc4sccc4c3O)n(C)c2=O)C1 , thanks.
Ans. 62.1

====

// Cerebrospinal fluid lookup, one value per entry
- METHOD NOTES: In vivo distribution of cerebrospinal fluid and plasma
- MEASUREMENT SETUP: 2h, intravenous 5 mg/kg, n=1
Write down the numeric answer in ng/g and omit the unit.

CCN1C[C@H](F)C[C@@H](Nc2nnc(-c3ccc4sccc4c3O)n(C)c2=O)C1 1
CCn1c(-c2ccc3sccc3c2O)nnc(N[C@@H]2C[C@@H](F)CN(C)C2)c1=O 40
CCN1CCC[C@@H](Nc2nnc(-c3ccc4sccc4c3O)n(C)c2=O)C1 15

In the following, a different compound is considered.
Qu. Need Cerebrospinal fluid of CCn1c(-c2ccc3sccc3c2O)nnc(N[C@@H]2CCCN(C)C2)c1=O , thanks.
Ans. 25

====

- Test system: LPS-induced mice
- METHOD NOTES: LPS-induced mouse model, survival
- Format: in vivo, Balb/c mice
- MEASUREMENT SETUP: 25 mg/kg, Second cage (5 mice), 72h
// survival status of mice (mice alive) 72h lookup, one value per entry
I'd appreciate a reply containing only the number, no unit.

Sample records with survival status of mice (mice alive) 72h:
COMPOUND	TARGET DESC	survival status of mice (mice alive) 72h
Cc1nc(N[C@@H]2CCCC[C@H]2O)nnc1-c1ccc(C(F)(F)F)cc1O [Ref-2, reference compound]	LPS-induced mice	3
CN1C[C@H](F)C[C@@H](Nc2nnc(-c3ccc4sccc4c3O)n(C)c2=O)C1	LPS-induced mice	4
CC(C)(O)c1coc(S(=O)(=O)NC(=O)Nc2c3c(cc4c2CCC4)CCC3)c1 [MCC950, reference compound]	LPS-induced mice	2
CCN1CCC[C@@H](Nc2nnc(-c3ccc4sccc4c3O)n(C)c2=O)C1	LPS-induced mice	5
CCN1C[C@H](F)C[C@@H](Nc2nnc(-c3ccc4sccc4c3O)n(C)c2=O)C1	LPS-induced mice	5
CN1CCC[C@@H](Nc2nnc(-c3ccc4sccc4c3O)n(C)c2=O)C1	LPS-induced mice	3

In the following, a different compound is considered.
Qu. Need survival status of mice (mice alive) 72h of Cn1c(-c2ccc3sccc3c2O)nnc(N[C@@H]2CCCN(CCO)C2)c1=O , thanks.
Ans. 4

====

- TARGET DESC: NLRP3 inflammasome (Homo sapiens)
- Construct: host or cells: THP-1 cells
- METHOD NOTES: Inhibitory activity of NLRP3 inflammasome in human monocytes (THP-1 cells, LPS + Nigericin, IL-1β ELISA)
- Assay type: cell-based
pIC50: −log10 of the molar value.
Mark Criterion not met for pIC50 values under 8, and Criterion met for everything at or above.

Qu. Answer whether pIC50 of CCN1C[C@H](F)C[C@@H](Nc2nnc(-c3ccc(C4CC4)cc3O)n(C)c2=O)C1 is greater than or equal to 8.
Ans. Criterion not met

Qu. Answer whether pIC50 of Cn1c(-c2ccc3sccc3c2O)nnc(N[C@@H]2CCCN(CCO)C2)c1=O is greater than or equal to 8.
Ans. Criterion met

Qu. Answer whether pIC50 of CN1C[C@H](F)C[C@@H](Nc2nnc(-c3ccc4sc(F)cc4c3O)n(C)c2=O)C1 is greater than or equal to 8.
Ans. Criterion met

Qu. Answer whether pIC50 of COCCn1c(-c2ccc3sccc3c2O)nnc(N[C@@H]2CCCN(C)C2)c1=O is greater than or equal to 8.
Ans. Criterion not met
